For reference, AC50 measured on Cytochrome P450 1A2 (Homo sapiens, UniProt P05177):

Task: # query: AC50 | item CN(C)c1nc2c(c(=O)[nH]c(=O)n2C)n1Cc1ccccc1Br | system: Cytochrome P450 1A2 (Homo sapiens, UniProt P05177)
Result: 28.2 µM (inconclusive)

Task: # query: AC50 | item CCc1ccccc1NC(=O)C(C)n1nc([N+](=O)[O-])c(Br)c1C (stereo not given) | system: Cytochrome P450 1A2 (Homo sapiens, UniProt P05177)
Result: 28.2 µM (inconclusive)

Task: # query: AC50 | item Cc1cc([N+](=O)[O-])nn1Cc1ccccc1F | system: Cytochrome P450 1A2 (Homo sapiens, UniProt P05177)
Result: 22.4 µM (inconclusive)

Task: # query: AC50 | item CCNc1ncc2nc(-c3cn(C)c4ccccc34)c(=O)n(-c3ccccc3)c2n1 | system: Cytochrome P450 1A2 (Homo sapiens, UniProt P05177)
Result: 15.8 µM (inconclusive)

Task: # query: AC50 | item CCCCn1c(SCc2c(C)noc2C)nc2cc(S(N)(=O)=O)ccc21 | system: Cytochrome P450 1A2 (Homo sapiens, UniProt P05177)
Result: 6.31 µM (inconclusive)

Task: # query: AC50 | item Nc1nc(Nc2ccccc2)nc2c1ncn2[C@@H]1O[C@@H](CO)[C@H](O)[C@@H]1O | system: Cytochrome P450 1A2 (Homo sapiens, UniProt P05177)
Result: 31.6 µM (inconclusive)

Task: # query: AC50 | item COc1ccc(OC)c(C2C3=C(O)OCC3=Nc3cc4c(cc32)OCO4)c1 (stereo not given) | system: Cytochrome P450 1A2 (Homo sapiens, UniProt P05177)
Result: 10 µM (inconclusive)

Task: # query: AC50 | item Cc1cccc(C(CC(=O)N2CCCC2)c2ccccc2)c1O (stereo not given) | system: Cytochrome P450 1A2 (Homo sapiens, UniProt P05177);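 note: PubChem cytochrome P450 panel assay, CYP1A2 panel member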
Result: 15.8 µM (inconclusive)
